Documented pIC50 across a set of compounds
Target: human IBAT (Homo sapiens, UniProt Q12908)
Construct: Bases 599 to 1645 correspond to the complete coding region of human IBAT
Sequence (Q12908 whole entry): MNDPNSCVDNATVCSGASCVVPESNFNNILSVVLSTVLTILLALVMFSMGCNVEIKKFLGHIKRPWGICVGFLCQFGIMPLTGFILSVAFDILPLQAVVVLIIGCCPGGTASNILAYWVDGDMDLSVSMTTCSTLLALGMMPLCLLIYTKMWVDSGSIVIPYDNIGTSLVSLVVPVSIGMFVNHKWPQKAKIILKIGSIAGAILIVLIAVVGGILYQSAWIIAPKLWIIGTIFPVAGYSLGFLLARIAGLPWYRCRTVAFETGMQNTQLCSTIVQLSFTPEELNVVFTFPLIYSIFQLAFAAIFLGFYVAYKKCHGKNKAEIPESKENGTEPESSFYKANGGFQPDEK
Test: in vitro IBAT inhibition assay: IBAT-dependent uptake of [3H]-taurocholic acid into CHO-hIBAT cells
Conditions: taurocholic acid 10 μM, 60 min at room temperature, read-out: IC-50 (human IBAT)
Description: Preparation and procedure for the in vitro IBAT inhibition assay: 1. Cloning of an Expression Vector for Human IBAT […] CHO-hIBAT cells were seeded in a concentration of 40 000 cells per well in poly-D-lysine-coated 96-well plates in cell culture medium and cultured for 24 h. […] Finally, 100 μl of scintillation fluid were added to each well, and the radioactivity taken up into the cells was determined in a MicroBeta Scintillation Microplate Reader from Wallac. […]
pIC50 here is simply -log10 of the concentration when that concentration is written in mol/L.

CCCC[C@]1(CC)CS(=O)(=O)c2ccc(N(C)C)cc2[C@@H](c2cccc(NC(=O)N[C@@H]3O[C@H](CO)C(F)(F)[C@H](O)[C@H]3O)c2)[C@H]1O	8.28

Noted for CCCC[C@]1(CC)CS(=O)(=O)c2ccc(N(C)C)cc2[C@@H](c2cccc(NC(=O)N[C@@H]3O[C@H](CO)[C@@H](F)[C@H](O)[C@H]3O)c2)[C@H]1O : its pIC50 reads 8.19

Noted for CCCC[C@]1(CC)CS(=O)(=O)c2ccc(N(C)C)cc2[C@@H](c2cccc(NC(=O)N[C@@H]3O[C@H](COS(=O)(=O)O)[C@@H](F)[C@H](O)[C@H]3O)c2)[C@H]1O : its pIC50 reads 8.41

Noted for CCCC[C@]1(CC)CS(=O)(=O)c2ccc(N(C)C)cc2[C@@H](c2cccc(NC(=O)N[C@@H]3O[C@H](CS(=O)(=O)O)[C@@H](F)[C@H](O)[C@H]3O)c2)[C@H]1O : its pIC50 reads 8.25

Noted for CCCC[C@]1(CC)CS(=O)(=O)c2ccc(N(C)C)cc2[C@@H](c2cccc(NC(=O)N[C@@H]3O[C@H](COS(=O)(=O)O)C(F)(F)[C@H](O)[C@H]3O)c2)[C@H]1O : its pIC50 reads 8.44
